The reported numbers originate from patent US10131652B2.

Listed compounds paired with reported pest or weed control at 125 g/ha
# System: pigweed (Amaranthus retroflexus)
# METHOD_DESCRIPTION: Test B pre-/postemergence plant response
# Format: in vivo
# RECORDED_CONDITIONS: Amaranthus retroflexus, post-emergence, 240 h; 125 g ai/ha, postemergence; 0 to 100 scale, 0 no effect, 100 complete control; read-out: Plant response rating, Pigweed
Supply the numeric figure in %, leaving out any unit text.

Examples with their reported pest or weed control at 125 g/ha follow.
- Fc1cccc(Oc2ncc(Cl)cn2)c1-c1cc(C(F)(F)F)on1 [Compound 168]: 100
- N#Cc1cccc(Oc2ncc(Cl)cn2)c1-c1cc(C(F)(F)F)ccn1 [Compound 158]: 80
- FC(F)c1cc(-c2ccccc2Oc2ncc(Br)cn2)no1 [Compound 62]: 100
- FC(F)(F)c1cnc(Oc2ccccc2-c2cnc(Br)s2)nc1 [Compound 15]: 70
- Clc1ccc(-c2c(Cl)cccc2Oc2ncc(Cl)cn2)nc1 [Compound 23]: 70

// moving on: another record for pest or weed control at 125 g/ha
Bench note, pigweed (Amaranthus retroflexus): entry FC(F)(F)c1ccc(-c2c(Cl)cccc2Oc2ncc(Cl)cn2)nc1 [Compound 160] , its pest or weed control at 125 g/ha = 90

* * *

# System: galium (catchweed bedstraw, Galium aparine)
# METHOD_DESCRIPTION: Test D pre-/postemergence plant response
# Assay type: in vivo
# RECORDED_CONDITIONS: Galium, pre-emergence; Preemergence; 31 g ai/ha; scale 0 to 100 (0 no effect, 100 complete control); read-out: Plant response rating, Galium
Listed molecules paired with reported pest or weed control at 31 g/ha
Supply the numeric figure in %, leaving out any unit text.

Examples with their reported pest or weed control at 31 g/ha follow.
• FC(F)c1cc(-c2ccccc2Oc2ncc(Br)cn2)no1 [Compound 62] = 100
• Fc1cccc(Oc2ncc(Cl)cn2)c1-c1cc(C(F)F)on1 [Compound 55] = 100
• FC(F)c1cc(-c2ccccc2Oc2ncc(Cl)cn2)on1 [Compound 53] = 95

Bench note, galium (catchweed bedstraw, Galium aparine): entry FC(F)(F)c1cc(-c2ccccc2Oc2ncc(Cl)cn2)on1 [Compound 63] , its pest or weed control at 31 g/ha = 98

Bench note, galium (catchweed bedstraw, Galium aparine): entry Fc1cccc(Oc2ncc(Cl)cn2)c1-c1cc(C(F)(F)F)on1 [Compound 168] , its pest or weed control at 31 g/ha = 100

* * *

# Test system: giant foxtail (Setaria faberii)
# METHOD_DESCRIPTION: Test F pre-/postemergence plant response
# Type: in vivo
# RECORDED_CONDITIONS: Setaria faberi, pre-emergence; 16 g ai/ha Preemergence; scale 0 to 100; read-out: Plant response rating, Foxtail, Giant
MEASUREMENT_TYPE: pest or weed control at 16 g/ha (%)
Supply the numeric figure in %, leaving out any unit text.

* FC(F)(F)c1cc(-c2ccccc2Oc2ncc(Cl)cn2)no1 | 35
* FC(F)c1cc(-c2ccccc2Oc2ncc(Cl)cn2)on1 | 0
* Fc1cccc(Oc2ncc(Cl)cn2)c1-c1cc(C(F)F)no1 | 15

// moving on: another record for pest or weed control at 16 g/ha
Field pest or weed control at 16 g/ha (entry Fc1cccc(Oc2ncc(Cl)cn2)c1-c1cc(C(F)(F)F)on1 ) reads 65

* * *

Listed compounds paired with reported Plant response rating, Pigweed
# Test system: pigweed (Amaranthus retroflexus)
# METHOD_DESCRIPTION: Test B pre-/postemergence plant response
# Assay type: in vivo
# RECORDED_CONDITIONS: 125 g ai/ha, postemergence; 0 to 100 scale, 0 no effect, 100 complete control
# From the text: […]
Form rule: numeric answer, no unit written next to it.

• FC(F)c1cc(-c2c(Cl)cccc2Oc2ncc(Br)cn2)on1 [Compound 121] = 100
• Cc1cnc(Oc2ccccc2-c2cc(C(C)(F)F)on2)nc1 [Compound 173] = 80
• FC(Cl)(Cl)c1cc(-c2ccccc2Oc2ncc(Cl)cn2)no1 [Compound 198] = 100

Field Plant response rating, Pigweed (entry Brc1cnc(Oc2ccccc2-c2ccno2)nc1 [Compound 155] ) reads 0

Field Plant response rating, Pigweed (entry Cc1csc(-c2c(C#N)cccc2Oc2ncc(Cl)cn2)c1 [Compound 238] ) reads 20

Field Plant response rating, Pigweed (entry Clc1cnc(Oc2ccccc2-c2cc(C3CC3)on2)nc1 [Compound 183] ) reads 100

Field Plant response rating, Pigweed (entry Fc1ccc(Oc2ncc(Cl)cn2)c(-c2cc(C(F)F)on2)c1Br [Compound 114] ) reads 100

Field Plant response rating, Pigweed (entry FC(F)(F)c1ccc(-c2ccccc2Oc2ncc(Cl)cn2)cc1 [Compound 43] ) reads 30

Field Plant response rating, Pigweed (entry FC(F)c1cc(-c2c(Cl)cccc2Oc2ncc(Cl)cn2)on1 [Compound 120] ) reads 100

* * *

Listed molecules paired with reported Plant response rating, Ragweed
# Tested on: ragweed (common ragweed, Ambrosia elatior)
# METHOD_DESCRIPTION: Test B pre-/postemergence plant response
# Assay type: in vivo
# RECORDED_CONDITIONS: Preemergence, 500 g ai/ha; 0 to 100 scale where 0 is no effect and 100 is complete control

Examples with their reported Plant response rating, Ragweed follow.
• FC(F)(F)c1csc(-c2ccccc2Oc2ncc(I)cn2)n1 = 0
• Cn1nnc(-c2ccccc2Oc2ncc(Br)cn2)n1 = 50
• Cc1c(-c2ccccc2Oc2ncc(Cl)cn2)noc1C(F)(F)F = 10
• Cn1nnnc1-c1ccccc1Oc1ncc(Br)cn1 = 0

Field Plant response rating, Ragweed (entry ON=Cc1cc(-c2ccccc2Oc2ncc(Cl)cn2)no1 ) reads 0

* * *

# System: ducksalad (Heteranthera limosa)
# METHOD_DESCRIPTION: Test D flooded paddy test plant response
# Format: in vivo
# RECORDED_CONDITIONS: Flood (flooded paddy test), 31 g ai/ha; visual rating on scale 0 to 100 (0 no effect, 100 complete control), 13 to 15 days
MEASUREMENT_TYPE: Plant response rating, Ducksalad
Form rule: numeric answer, no unit written next to it.

• N#Cc1cccc(Oc2ncc(Cl)cn2)c1-c1cc(C(F)F)on1 = 0
• Clc1ccc(-c2ccccc2Oc2ncc(Cl)cn2)nc1 = 0
• FCc1cc(-c2ccccc2Oc2ncc(Cl)cn2)no1 = 0

// moving on: another record for Plant response rating, Ducksalad
Field Plant response rating, Ducksalad (entry Fc1cccc(Oc2ncc(Br)cn2)c1-c1cc(C(F)F)no1 ) reads 80

* * *

Listed molecules paired with reported Foxtail, Giant plant response rating
# Test system: giant foxtail (Setaria faberii)
# METHOD_DESCRIPTION: Test B pre-/postemergence plant response
# Type: in vivo
# RECORDED_CONDITIONS: Preemergence, 31 g ai/ha; 0 to 100 scale (0 no effect, 100 complete control)
Form rule: numeric answer, no unit written next to it.

Examples with their reported Foxtail, Giant plant response rating follow.
* Fc1ccc(Oc2ncc(Cl)cn2)c(-c2cc(C(F)F)on2)c1Cl | 10
* FC(F)(F)c1cnc(Oc2ccccc2-c2cnc(Br)s2)nc1 | 0
* Cc1nc(-c2ccccc2Oc2ncc(Cl)cn2)co1 | 0

Field Foxtail, Giant plant response rating (entry Clc1cnc(Oc2ccccc2-c2cc(C(Cl)Cl)on2)nc1 ) reads 10

Field Foxtail, Giant plant response rating (entry COc1cccc(Oc2ncc(Cl)cn2)c1-c1cc(C(F)(F)F)no1 ) reads 40

Field Foxtail, Giant plant response rating (entry N#Cc1cc(-c2ccccc2Oc2ncc(Cl)cn2)no1 ) reads 0

* * *

# Test system: sandbur (southern sandbur, Cenchrus echinatus)
# METHOD_DESCRIPTION: Test F pre-/postemergence plant response
# Format: in vivo
# RECORDED_CONDITIONS: 62 g ai/ha Postemergence; scale 0 to 100
MEASUREMENT_TYPE: Plant response rating, Sandbur
Form rule: numeric answer, no unit written next to it.

Examples with their reported Plant response rating, Sandbur follow.
• FC(F)c1cc(-c2ccccc2Oc2ncc(Br)cn2)on1 = 0
• Fc1ccc(Oc2ncc(Cl)cn2)c(-c2cc(C(F)(Cl)Cl)on2)c1 = 0

Field Plant response rating, Sandbur (entry FC(F)c1cc(-c2c(Cl)cccc2Oc2ncc(Cl)cn2)no1 ) reads 5

Field Plant response rating, Sandbur (entry Fc1ccc(Oc2ncc(Cl)cn2)c(-c2cc(C(F)F)on2)c1Cl ) reads 0

* * *

Listed compounds paired with reported Plant response rating, Ryegrass, Italian
# Test system: Italian ryegrass (Lolium multiflorum)
# METHOD_DESCRIPTION: Test B pre-/postemergence plant response
# Type: in vivo
# RECORDED_CONDITIONS: 31 g ai/ha, Preemergence; 0 to 100 scale where 0 is no effect and 100 is complete control
Form rule: numeric answer, no unit written next to it.

Examples with their reported Plant response rating, Ryegrass, Italian follow.
* Fc1ccc(-c2cc(C(F)(F)F)no2)c(Oc2ncc(Cl)cn2)c1 | 0
* Cn1cnc(-c2ccccc2Oc2ncc(Cl)cn2)n1 | 0

Field Plant response rating, Ryegrass, Italian (entry FC(F)(F)C(F)(F)c1cc(-c2ccccc2Oc2ncc(Cl)cn2)no1 ) reads 0
